// data source = ChEMBL document CHEMBL1799938

system: A549; experiment: Growth inhibition of human A549 cells after 48 hrs by sulforhodamine B assay; assay type: functional; details: A549, 48 h
Reported property: GI50 (nM)

Compound	Result number
COc1ccc(/C=C/C(=O)C(=Cc2cccc(F)c2)C(=O)/C=C/c2ccc(OC)c(OC)c2)cc1OC	580
COc1cc(C=C(C(=O)/C=C/c2ccc(OC)c(OC)c2)C(=O)/C=C/c2ccc(OC)c(OC)c2)ccc1O	530
COc1ccc(/C=C/C(=O)C(=Cc2ccc(OC)c(OC)c2)C(=O)/C=C/c2ccc(OC)cc2)cc1	930
CCc1ccc(C=C(C(=O)/C=C/c2ccc(O)c(OC)c2)C(=O)/C=C/c2ccc(O)c(OC)c2)cc1	550
COc1ccc(/C=C/C(=O)C(=Cc2cccc(OC)c2OC)C(=O)/C=C/c2ccc(OC)c(OC)c2)cc1OC	670
COc1ccc(/C=C/C(=O)C(=Cc2ccc(N(C)C)cc2)C(=O)/C=C/c2ccc(OC)c(OC)c2)cc1OC	2620

a. COc1ccc(/C=C/C(=O)C(=Cc2cc(OC)c(OC)c(OC)c2)C(=O)/C=C/c2ccc(OC)c(OC)c2)cc1OC
b. COc1ccc(/C=C/C(=O)C(=Cc2ccc(O)c(OC)c2)C(=O)/C=C/c2ccc(OC)cc2)cc1
c. COc1cc(/C=C/C(=O)/C=C/c2sccc2C)cc(OC)c1OC
d. COc1ccc(C=C(C(=O)/C=C/c2ccc(O)c(OC)c2)C(=O)/C=C/c2ccc(O)c(OC)c2)c(OC)c1
(Q) Sort by GI50, descending. Would you mind listing the labels in the order requested?
(A) c, b, d, a
(c: 9310 nM, b: 1640 nM, d: 690 nM, a: 230 nM)
